test: In vitro CEST-MRI of thymidine analogues at 11.7 T
Assay type: physicochemical
measurement-conditions: at 5 ppm for 20 nM agent (so in the source), pH 7.4, 37° C.
Below, each entry is listed with its recorded MTRasym (170 Hz).
measured-attribute: MTRasym (170 Hz) (%)

{"compound": "CC1(O)C(=O)NC(=O)N([C@H]2C[C@H](O)[C@@H](CO)O2)C1O (stereo partly shown)", "units": "%", "measured-result": 11}
{"compound": "C[C@H]1CN([C@H]2C[C@H](O)[C@@H](CO)O2)C(=O)NC1=O [Compound 1, (5S)-5,6-dihydrothymidine]", "units": "%", "measured-result": 18}
{"compound": "Cc1cn([C@H]2C[C@H](O)[C@@H](CO)O2)c(=O)[nH]c1=O [dT, Thymidine, reference compound]", "units": "%", "measured-result": 10}
{"compound": "CC1(C)CN([C@H]2C[C@H](O)[C@@H](CO)O2)C(=O)NC1=O [Compound 2, 5-Methyl-5,6-dihydrothymidine]", "units": "%", "measured-result": 16}
